Target: PP2A-B′γ1 holoenzyme (UniProt P30153 1-589; P67775 1-309; Q13362-2 1-449)
Sequence (P30153 whole entry, chain 1 of 3, other chains not shown): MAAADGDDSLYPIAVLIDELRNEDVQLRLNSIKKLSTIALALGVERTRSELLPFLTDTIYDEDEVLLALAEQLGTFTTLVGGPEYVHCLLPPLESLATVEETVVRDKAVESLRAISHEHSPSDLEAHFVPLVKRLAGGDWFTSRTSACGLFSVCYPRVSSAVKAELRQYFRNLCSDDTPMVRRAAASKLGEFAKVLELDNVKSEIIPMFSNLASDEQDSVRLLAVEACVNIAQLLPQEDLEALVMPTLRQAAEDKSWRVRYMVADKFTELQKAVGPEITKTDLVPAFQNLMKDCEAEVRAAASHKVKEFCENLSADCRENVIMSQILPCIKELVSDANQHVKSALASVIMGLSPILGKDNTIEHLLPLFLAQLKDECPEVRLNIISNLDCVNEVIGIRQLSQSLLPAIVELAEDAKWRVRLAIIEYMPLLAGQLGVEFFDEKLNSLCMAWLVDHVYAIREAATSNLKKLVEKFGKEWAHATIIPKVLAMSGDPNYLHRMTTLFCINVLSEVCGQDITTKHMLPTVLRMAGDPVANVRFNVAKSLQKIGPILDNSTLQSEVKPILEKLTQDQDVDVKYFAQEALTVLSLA
Sequence (P67775 whole entry, chain 2 of 3, other chains not shown): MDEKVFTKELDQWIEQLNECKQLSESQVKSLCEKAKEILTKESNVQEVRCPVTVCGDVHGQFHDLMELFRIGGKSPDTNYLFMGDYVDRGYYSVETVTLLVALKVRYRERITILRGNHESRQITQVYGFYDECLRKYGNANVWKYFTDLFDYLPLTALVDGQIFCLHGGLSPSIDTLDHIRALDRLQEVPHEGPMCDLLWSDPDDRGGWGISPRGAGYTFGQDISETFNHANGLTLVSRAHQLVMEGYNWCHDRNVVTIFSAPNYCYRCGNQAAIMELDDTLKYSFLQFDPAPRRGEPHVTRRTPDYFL
Assay: BLI
Where no end group is shown, it is not given here.
Property Label: Kd (nM)
Give bare numbers, in nM.

Report Kd for every entry below.
1. IKKLSPIIEDSREATH [GST-tagged BUB1B peptide (B′-binding motif)]
2. LSSIPEASEYDWRNYQ [GST-tagged C3orf67 peptide (B′-binding motif)]
3. FQHNRKLESVAEEHEI [GST-tagged KIAA1524 (CIP2A) peptide (B′-binding motif)]
4. KLPHVLSSIAEEEHHL [GST-tagged SYT16 peptide (B′-binding motif)]
5. YQPLECIVEETEGKLN (not fully specified) [GST-tagged ANKHD1 peptide (B′-binding motif)]

**Result**
1: 34; 2: 43; 3: 310; 4: 121; 5: 320

**Query** Note down Kd recorded for LETIPESEPSGMNRIL [GST-tagged DENND2C peptide (B′-binding motif)]
**Result** 221
